SUBJECT_OF_TEST: human recombinant HDAC6 (Homo sapiens)
Construct: purchased Calbiochem 382180
Sequence (Q9UBN7 1-1215): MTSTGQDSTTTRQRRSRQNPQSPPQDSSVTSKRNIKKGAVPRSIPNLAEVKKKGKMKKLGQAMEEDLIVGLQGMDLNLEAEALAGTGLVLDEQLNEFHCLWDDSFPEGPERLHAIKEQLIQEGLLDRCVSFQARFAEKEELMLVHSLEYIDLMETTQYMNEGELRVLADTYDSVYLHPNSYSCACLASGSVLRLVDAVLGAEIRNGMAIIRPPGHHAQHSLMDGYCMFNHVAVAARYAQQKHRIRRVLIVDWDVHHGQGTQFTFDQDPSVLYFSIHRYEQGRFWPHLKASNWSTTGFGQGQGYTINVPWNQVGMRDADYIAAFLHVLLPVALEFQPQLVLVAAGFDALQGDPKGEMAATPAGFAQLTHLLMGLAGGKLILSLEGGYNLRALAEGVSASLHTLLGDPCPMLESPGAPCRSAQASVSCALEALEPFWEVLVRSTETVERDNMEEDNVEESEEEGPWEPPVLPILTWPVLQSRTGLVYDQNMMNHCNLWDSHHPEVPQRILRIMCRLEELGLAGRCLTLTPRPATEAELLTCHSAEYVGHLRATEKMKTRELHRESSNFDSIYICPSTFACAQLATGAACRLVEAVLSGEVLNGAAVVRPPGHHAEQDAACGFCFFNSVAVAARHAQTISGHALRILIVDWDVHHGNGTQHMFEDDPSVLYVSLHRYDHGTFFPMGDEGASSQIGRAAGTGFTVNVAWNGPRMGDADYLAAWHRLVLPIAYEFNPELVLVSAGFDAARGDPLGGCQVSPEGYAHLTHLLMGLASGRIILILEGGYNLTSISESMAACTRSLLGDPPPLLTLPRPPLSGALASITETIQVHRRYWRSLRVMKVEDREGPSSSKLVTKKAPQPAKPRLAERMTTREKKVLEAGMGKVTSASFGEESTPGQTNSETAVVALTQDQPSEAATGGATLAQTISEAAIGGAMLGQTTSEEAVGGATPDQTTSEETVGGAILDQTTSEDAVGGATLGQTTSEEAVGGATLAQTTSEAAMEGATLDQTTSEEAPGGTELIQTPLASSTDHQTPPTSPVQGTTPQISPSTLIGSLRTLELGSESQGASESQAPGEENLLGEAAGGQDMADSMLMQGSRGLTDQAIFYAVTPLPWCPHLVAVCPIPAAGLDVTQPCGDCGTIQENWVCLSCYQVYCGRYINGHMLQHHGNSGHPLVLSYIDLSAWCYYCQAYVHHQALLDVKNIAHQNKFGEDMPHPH
ASSAY_METHOD_TEXT: HDAC6 enzyme activity inhibition assay (in vitro, fluorimetric)
Assay type: biochemical
RUN_PARAMETERS: HDAC6 selectivity over HDAC1
READOUT_NAME: HDAC6 selectivity (fold)

Example entries begin here.
INSERT INTO results (molecule, readout_number) VALUES
  ('C[C@@H]1CN(Cc2ccc(C(=O)NO)cc2)C[C@H](C)N1C(=O)C1CC1', 72),
  ('C[C@@H]1CN(Cc2ccc(C(=O)NO)cc2)C[C@H](C)N1C(=O)c1ccc(CN2CCCCC2)cc1', 25),
  ('C[C@@H]1CN(C(=O)c2cccc(-c3ccoc3)c2)C[C@H](C)N1Cc1ccc(C(=O)NO)cc1', 7);

[A] C[C@@H]1CN(C(=O)c2ccccc2C2=CCC(C)(C)CC2)C[C@H](C)N1Cc1ccc(C(=O)NO)cc1
[B] COc1ccc(NC(=O)N2C[C@@H](C)N(Cc3ccc(C(=O)NO)cc3)[C@@H](C)C2)cc1
[C] C[C@@H]1CN(Cc2ccc(C(=O)NO)cc2)C[C@@H](C)N1C(=O)c1ccco1
[D] CC(c1ccccc1)N1C[C@@H](C)N(Cc2ccc(C(=O)NO)cc2)[C@@H](C)C1 (stereo partly shown)
[E] C[C@@H]1CN(Cc2ccc(C(=O)NO)cc2)C[C@H](C)N1C(=O)c1cccc(-c2cccnc2)c1
query: Ordering criterion: HDAC6 selectivity (fold); begin with the maximum. Write the labels out in the order the request specifies.
result: C, A, E, D, B

[P] C[C@@H]1CN(S(=O)(=O)c2ccccc2Cl)C[C@H](C)N1Cc1ccc(C(=O)NO)cc1
[Q] C[C@@H]1CN(Cc2ccc3cc(C(=O)NO)[nH]c3c2)C[C@H](C)N1Cc1ccccc1
query: Kindly identify the item with the lower HDAC6 selectivity (fold) figure among these two: P and Q Selection: enter the item's label.
result: Q
(Q: 36 fold, P: 59 fold)
